// provenance: PubChem BioAssay

Listed next: entries and their corresponding composite z-score.
target: Fibroblast growth factor 2 (Homo sapiens) (UniProt P09038); assay: FGF2 binders on small-molecule microarrays, primary screen, biochemical, small-molecule microarray, 635/667 nm fluorescence (AID 1133); conditions: small-molecule microarray binding, FGF2, fluorescence 635/667; higher = more signal
Sequence (P09038 whole entry, looked up): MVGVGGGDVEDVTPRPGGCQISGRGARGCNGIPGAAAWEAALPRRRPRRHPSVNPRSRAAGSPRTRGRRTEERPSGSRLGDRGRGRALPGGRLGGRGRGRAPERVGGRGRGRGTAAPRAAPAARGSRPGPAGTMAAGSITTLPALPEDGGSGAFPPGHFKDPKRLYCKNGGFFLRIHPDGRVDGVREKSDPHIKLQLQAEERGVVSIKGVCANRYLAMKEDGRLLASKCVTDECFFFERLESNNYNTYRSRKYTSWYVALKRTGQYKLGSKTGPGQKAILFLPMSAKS
Respond with the number and no other words.

C=C(/C(=C/C[C@@H](OC(C)=O)c1ccc(OCCO)cc1)c1cnc2ccccc2c1)C(C)C = 0.757
CN1C(=O)C2C=CC(C(O)C3CC=CCC3)N(NC(=O)OC(C)(C)C)C2C1=O (centres undefined) = 0.124
COC(=O)[C@@]1(Cc2ccccc2)[C@H]2c3cc(C(=O)N(C)C)n(CCSCCO)c3C[C@H]2CN1C(=O)c1ccccc1 = -0.299
COc1ccc([C@H]2C[C@H]3C(Br)=C[C@@H]2C(=O)[C@]32CO2)cc1 = 0.194
C=CCNC(=O)[C@@H]1[C@H]2C(=O)O[C@H](c3ccccc3)[C@H](c3ccccc3)N2[C@H](c2ccc(OCCO)cc2)[C@@]12C(=O)Nc1ccc(C#CCCO)cc12 = 1.68

Item under review: O=C(NCc1ccccc1)[C@@]1(Cc2ccccc2)N=C(c2ccc(OCCCO)cc2)O[C@H]1c1ccccc1 . Reported composite z-score?
-0.352

Quick check: composite z-score of COC(=O)[C@@]1(Cc2ccc(OC)cc2)[C@H]2c3cc(C(=O)N(C)C)n(CCN4CNCC4=O)c3C[C@H]2CN1C(=O)c1ccccc1 ?
-0.294

Query: composite z-score; subject: O=C(c1ccccc1)N1Cc2ccccc2[C@@H]2OC(c3ccc(OCCCO)cc3)=N[C@]2(Cc2ccccc2)C1=O
1.02

---

composite z-score values by entry
biological target: Focal adhesion kinase 1 (Homo sapiens); assay: small-molecule microarray binders of FAK, primary screen, biochemical, 635/667 nm fluorescence, BSA, DTT (AID 1130); settings: PTK2 binding, 635 nm fluorescence, higher = more signal;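 further: composite of spot emission at 667 nm and signal to noise over triplicate slides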
Answer field: number only, no words.

CN1C2C=C(CCCO)C(C3C(=O)N(C(N)=O)C(=O)C32)C1c1ccc(CN2CCCC2)cc1 (centres undefined) = -0.311
[N-]=[N+]=Nc1ccccc1C[C@]1(C(=O)NCC(O)CO)N=C(c2ccc(OCCCO)cc2)O[C@H]1c1ccccc1N=[N+]=[N-] (some centres undefined) = 0.0567
C=CCNC(=O)[C@@H]1[C@H]2C(=O)O[C@H](c3ccccc3)[C@H](c3ccccc3)N2[C@H](c2ccc(OCCO)cc2)[C@@]12C(=O)Nc1ccc(C#CCCO)cc12 = 1.17

Entry Cc1ccc(S[C@]2(C(=O)NCC(C)C)CC(=O)N(Cc3cc(C(F)(F)F)cc(C(F)(F)F)c3)[C@@H]2c2ccc(CO)cc2I)cc1 : reported composite z-score = ?
-0.55

State the recorded composite z-score for this entry: COc1cc2c(cc1OC)CN(C(=O)[C@@H]1[C@H]3C(=O)O[C@H](c4ccccc4)[C@H](c4ccccc4)N3[C@H](c3ccc(O)cc3)[C@@]13C(=O)Nc1ccc(C#CC4(O)CCCCCC4)cc13)CC2
0.592

Look at this compound and give its reported composite z-score. CC1CC/C=C\[C@H]2OC34C=CCN(Cn5nnc6ccccc65)C(=O)[C@H]3N(C(CO)C(C)C)C(=O)[C@@H]4C2C(=O)O1 (some centres undefined)
0.0406

Quick one: composite z-score of CN(C)C(=O)[C@@]1(Cc2ccccc2)N=C(c2ccc(OCCCO)cc2)O[C@H]1c1ccccc1N=[N+]=[N-] ?
0.978

# composite z-score lookup, item C=C(CCCC)C(=O)CC[C@@H](OC(=O)c1cccnc1)c1ccc(CO)o1
-0.338
